Data provenance is patent US8242126B2.

Measured on: Human PDE7 (Homo sapiens, UniProt Q13946)
Construct: Human PDE7 was partially purified from the HUT-78 cell line; endogenous in cells
Sequence (Q13946 whole entry): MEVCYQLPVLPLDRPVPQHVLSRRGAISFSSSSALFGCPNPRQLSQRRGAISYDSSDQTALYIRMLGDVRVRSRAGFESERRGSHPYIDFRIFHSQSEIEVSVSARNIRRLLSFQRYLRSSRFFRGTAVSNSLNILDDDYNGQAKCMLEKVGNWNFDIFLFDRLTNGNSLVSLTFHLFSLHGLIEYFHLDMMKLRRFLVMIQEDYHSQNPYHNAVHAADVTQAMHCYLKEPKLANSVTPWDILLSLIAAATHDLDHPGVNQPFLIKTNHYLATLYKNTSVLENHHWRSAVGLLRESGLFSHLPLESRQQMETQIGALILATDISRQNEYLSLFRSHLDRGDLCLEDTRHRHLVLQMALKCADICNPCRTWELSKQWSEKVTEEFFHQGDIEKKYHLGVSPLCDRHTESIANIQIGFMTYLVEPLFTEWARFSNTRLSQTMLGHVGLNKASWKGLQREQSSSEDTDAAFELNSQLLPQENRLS
Experimental details: PDE7 enzymatic assay (radioactive cAMP / 5′-AMP separation by TLC on PEI cellulose)
Format: biochemical
Study conditions: human PDE7 partially purified from HUT-78 cells, 10 μM rolipram present; read-out: IC50 (inhibition of PDE7)
Observation type: log10 IC50 (log10 of the value in nM)
Parameter value (number): base-10 log of IC50 in nM.

Worked examples, 3 molecules total:
COc1ccc(Cn2c(=O)c3c(Cl)cc(Cl)cc3n(C3CCN(C=O)CC3)c2=O)cc1OC :: 1.79
COc1ccc(Cn2c(=O)c3cc(OCCO)ccc3n(C3CCN(C=O)CC3)c2=O)cc1OC :: 1.95
COc1ccc(Cn2c(=O)c3cc(OC(F)F)ccc3n(C3CCN(C=O)CC3)c2=O)cc1OC :: 0.83

Give the reported log10 IC50 for `COc1ccc(Cn2c(=O)c3cc(OCC(F)F)ccc3n(C3CCN(C=O)CC3)c2=O)cc1OC` (system: Human PDE7 (Homo sapiens, UniProt Q13946)).
1.18

Request: log10 IC50, test system Human PDE7 (Homo sapiens, UniProt Q13946), entry COc1ccc(Cn2c(=O)c3cc(CNC(C)=O)ccc3n(C3CCN(C=O)C3)c2=O)cc1OC (stereo not drawn)
2.91

Notebook: pull reported log10 IC50 for Human PDE7 (Homo sapiens, UniProt Q13946), entry `COc1ccc(Cn2c(=O)c3cc(OC(CF)CF)ccc3n(C3CCN(C=O)CC3)c2=O)cc1OC`
1.59

====

Measured on: Human PDE7 (Homo sapiens)
Construct: Human PDE7 was partially purified from the HUT-78 cell line; endogenous in cells
Experimental details: PDE7 enzymatic assay (radioactive cAMP / 5′-AMP separation by TLC on PEI cellulose)
Assay type: biochemical
Study conditions: table comparing PDE7 and PDE8; read-out: IC50 PDE7
This section presents molecules with their documented IC50 values.
Give just the number in nM; leave the unit off.

COc1cc(Cn2c(=O)c3cc(OC(CF)CF)ccc3n(C3CCN(C=O)CC3)c2=O)ccc1OCC(=O)N1CCCCC1 :: 46

Any idea what IC50 was measured for `N#Cc1cc(Cn2c(=O)c3cc(OC(CF)CF)ccc3n(C3CCN(C=O)CC3)c2=O)ccc1-c1ccccc1` ?
37
